Test: Drug uptake in C57BL/6J mouse plasma at 3 mg/kg, po incubated for 3 hrs by LC-MS/MS analysis
Format: ADME, organism-based
propertyName: concentration at 3 h (nM)
Reply with just the number (in nM).

Challenge: Fill in concentration at 3 h for record C[C@@H]1COCCN1c1nc(N2CCOC[C@@H]2C)nc2sc(-c3cc[nH]n3)nc12
Response given: 2210

---

Biological target: Serine/threonine-protein kinase mTOR (Rattus norvegicus, UniProt P42346, L1460P)
Experiment: Inhibition of mTOR L1460P mutant in rat primary cortical neuron assessed as reduction in PS6 phosphorylation incubated for 4 hrs by Western blot analysis (reference value: 19 nM)
propertyName: IC50 (µM)
Enter your answer as a number in µM; do not include the unit.

Challenge: Give me measured IC50, please, for this compound: C[C@@H]1COCCN1c1nc(N2CCOC[C@@H]2C)nc2sc(-c3cc[nH]n3)nc12
Response given: 0.011

---

Target: Serine/threonine-protein kinase ATR (Homo sapiens, UniProt Q13535)
Sequence (Q13535 whole entry): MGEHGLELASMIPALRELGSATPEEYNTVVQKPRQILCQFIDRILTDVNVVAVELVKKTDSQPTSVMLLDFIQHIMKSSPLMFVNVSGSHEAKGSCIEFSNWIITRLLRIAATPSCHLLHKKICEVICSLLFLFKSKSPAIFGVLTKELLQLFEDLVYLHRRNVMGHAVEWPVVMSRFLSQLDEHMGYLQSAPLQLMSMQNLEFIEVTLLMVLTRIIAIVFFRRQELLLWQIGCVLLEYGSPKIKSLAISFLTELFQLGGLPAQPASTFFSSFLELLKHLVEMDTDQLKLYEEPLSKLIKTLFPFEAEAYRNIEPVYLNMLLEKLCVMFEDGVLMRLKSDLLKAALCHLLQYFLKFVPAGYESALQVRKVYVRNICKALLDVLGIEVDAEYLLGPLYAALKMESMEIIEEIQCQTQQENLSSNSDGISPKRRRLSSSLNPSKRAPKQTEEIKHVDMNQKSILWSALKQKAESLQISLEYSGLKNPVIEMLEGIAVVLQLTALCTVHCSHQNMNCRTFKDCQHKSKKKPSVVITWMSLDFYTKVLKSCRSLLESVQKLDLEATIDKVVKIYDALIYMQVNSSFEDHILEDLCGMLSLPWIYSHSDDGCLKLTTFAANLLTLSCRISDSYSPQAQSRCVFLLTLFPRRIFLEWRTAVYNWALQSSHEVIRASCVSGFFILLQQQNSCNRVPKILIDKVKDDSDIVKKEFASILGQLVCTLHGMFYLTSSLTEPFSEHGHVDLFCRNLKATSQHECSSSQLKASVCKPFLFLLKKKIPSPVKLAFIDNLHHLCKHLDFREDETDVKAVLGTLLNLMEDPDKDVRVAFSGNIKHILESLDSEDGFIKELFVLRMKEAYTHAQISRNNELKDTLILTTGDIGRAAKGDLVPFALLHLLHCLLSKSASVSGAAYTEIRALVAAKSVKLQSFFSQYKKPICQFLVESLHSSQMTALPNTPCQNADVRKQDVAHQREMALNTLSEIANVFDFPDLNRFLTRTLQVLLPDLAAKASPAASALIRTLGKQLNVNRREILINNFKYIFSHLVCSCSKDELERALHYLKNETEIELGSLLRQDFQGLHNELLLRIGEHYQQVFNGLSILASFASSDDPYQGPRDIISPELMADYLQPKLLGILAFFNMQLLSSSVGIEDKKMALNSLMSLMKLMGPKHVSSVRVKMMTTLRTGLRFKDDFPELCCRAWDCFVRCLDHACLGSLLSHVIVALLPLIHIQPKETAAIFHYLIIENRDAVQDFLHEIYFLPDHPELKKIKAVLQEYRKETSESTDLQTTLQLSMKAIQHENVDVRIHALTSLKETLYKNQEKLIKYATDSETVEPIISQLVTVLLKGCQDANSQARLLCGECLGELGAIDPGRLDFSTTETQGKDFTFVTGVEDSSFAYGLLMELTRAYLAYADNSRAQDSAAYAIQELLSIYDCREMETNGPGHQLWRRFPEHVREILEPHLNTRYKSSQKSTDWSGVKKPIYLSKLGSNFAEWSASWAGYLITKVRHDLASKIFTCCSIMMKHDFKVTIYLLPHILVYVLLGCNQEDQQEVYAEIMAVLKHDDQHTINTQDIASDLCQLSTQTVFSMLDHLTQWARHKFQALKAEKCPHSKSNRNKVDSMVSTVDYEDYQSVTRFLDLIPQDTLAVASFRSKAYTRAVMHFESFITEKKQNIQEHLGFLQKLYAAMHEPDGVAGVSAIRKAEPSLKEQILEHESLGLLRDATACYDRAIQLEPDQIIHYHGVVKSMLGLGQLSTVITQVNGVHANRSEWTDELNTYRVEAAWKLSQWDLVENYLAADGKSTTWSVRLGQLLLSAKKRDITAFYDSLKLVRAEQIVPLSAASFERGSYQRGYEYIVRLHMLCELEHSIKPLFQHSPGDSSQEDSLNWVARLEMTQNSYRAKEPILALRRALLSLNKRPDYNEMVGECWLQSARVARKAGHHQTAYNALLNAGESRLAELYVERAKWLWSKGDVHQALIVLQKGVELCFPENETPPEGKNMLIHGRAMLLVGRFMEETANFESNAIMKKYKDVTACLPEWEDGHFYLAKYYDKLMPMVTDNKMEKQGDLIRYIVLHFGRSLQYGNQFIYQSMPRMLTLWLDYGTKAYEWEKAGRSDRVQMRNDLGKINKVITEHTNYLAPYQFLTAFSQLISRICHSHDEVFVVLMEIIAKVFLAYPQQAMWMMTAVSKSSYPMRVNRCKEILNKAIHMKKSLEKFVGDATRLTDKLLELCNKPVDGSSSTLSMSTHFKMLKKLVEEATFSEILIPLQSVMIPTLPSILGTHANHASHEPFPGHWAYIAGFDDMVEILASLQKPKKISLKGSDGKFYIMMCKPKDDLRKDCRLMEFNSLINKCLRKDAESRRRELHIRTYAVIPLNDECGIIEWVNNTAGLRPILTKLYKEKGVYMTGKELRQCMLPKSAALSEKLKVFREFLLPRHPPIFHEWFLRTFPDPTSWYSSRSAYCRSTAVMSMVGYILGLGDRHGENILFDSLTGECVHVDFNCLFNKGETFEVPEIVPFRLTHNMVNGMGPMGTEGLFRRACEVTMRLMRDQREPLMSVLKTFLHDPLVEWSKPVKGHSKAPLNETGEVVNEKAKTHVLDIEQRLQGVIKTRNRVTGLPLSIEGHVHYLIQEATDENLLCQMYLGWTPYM
Experiment: Inhibition of ATR (unknown origin) assessed as reduction in CHK1 phosphorylation by cell based assay
propertyName: IC50
Please state the value followed by its unit.

Challenge: Determine from records and report IC50 for C[C@@H]1COCCN1c1nc(N2CCOC[C@@H]2C)nc2sc(-c3cc[nH]n3)nc12
Response given: 394 nM

---

Target: Serine/threonine-protein kinase mTOR (Mus musculus, UniProt Q9JLN9)
Assay: Inhibition of mTOR in mouse TSC1-/- MEF cells assessed as inhibition of S6 Ser240/244 phosphorylation incubated for 2 hrs by fluorescence based assay
Assay type: cell-based
propertyName: IC50 (nM)
State the answer as a number, implicitly in nM.

Challenge: Read off the recorded IC50 for C[C@@H]1COCCN1c1nc(N2CCOC[C@@H]2C)nc2[nH]c(-c3cccc4[nH]ccc34)nc12
Response given: 38

---

Assay: AUC (0 to t) in C57BL/6 mouse at 1 mg/kg, iv by HPLC analysis
Format: ADME, organism-based
Conditions: in vivo
propertyName: AUC(0-t) (µM·h)
Supply the numeric figure in µM·h, leaving out any unit text.

Challenge: For the molecule C[C@@H]1COCCN1c1nc(N2CCOC[C@@H]2C)nc2sc(-c3cc[nH]n3)nc12 , give its reported AUC(0-t).
Response given: 4.41

---

Assay: Oral bioavailability in C57BL/6 mouse at 5 mg/kg by HPLC analysis
Assay type: ADME, organism-based
Conditions: in vivo
propertyName: bioavailability (%)
The response must be a number in % with no trailing unit.

Challenge: Please give measured bioavailability of the following entry: C[C@@H]1COCCN1c1nc(N2CCOC[C@@H]2C)nc2sc(-c3cc[nH]n3)nc12
Response given: 61

---

Biological target: Serine/threonine-protein kinase mTOR (Rattus norvegicus, UniProt P42346, S2215Y)
Experiment: Inhibition of mTOR S2215Y mutant in rat primary cortical neuron assessed as reduction in PS6 phosphorylation incubated for 4 hrs by Western blot analysis (reference value: 19 nM)
propertyName: IC50 (µM)
Response body: numeric value in µM, unit text excluded.

Challenge: Give reported IC50 value for C[C@@H]1COCCN1c1nc(N2CCOC[C@@H]2C)nc2sc(-c3cc[nH]n3)nc12
Response given: 0.014

---

Target: Serine/threonine-protein kinase mTOR (Mus musculus, UniProt Q9JLN9)
Test: Inhibition of mTOR in mouse MEF cells harboring TSC1 deletion mutant assessed as reduction in PS6 phosphorylation incuabted for 2 hrs alexa fluor 594 and Hoechst staining based fluorescence assay
Type: cell-based
Please go through the items and note down their pIC50.
Lab note: report pIC50 as minus log10 of the concentration in molar units, number only.

Challenge: Retrieve pIC50 measured for C[C@@H]1COCCN1c1nc(N2CCOCC2)nc2sc(-c3cc[nH]n3)nc12 and print it.
Response given: 8.28

Challenge: Supply reported pIC50 belonging to this molecule: C[C@@H]1COCCN1c1nc(N2CCOC[C@@H]2C)nc2sc(-c3cn[nH]n3)nc12
Response given: 8.16

Challenge: // Input: C[C@@H]1COCCN1c1nc(C2CCOCC2)nc2sc(-c3cc[nH]n3)nc12 . Output its pIC50 only.
Response given: 8.20

---

Assay: Tmax in C57BL/6 mouse at 1 mg/kg, iv or 5 mg/kg, po by HPLC analysis
Type: ADME, organism-based
Conditions: in vivo
propertyName: Tmax
Note: a bare number is incomplete; add the unit.

Challenge: Recall and state the measured Tmax for C[C@@H]1COCCN1c1nc(N2CCOC[C@@H]2C)nc2sc(-c3cc[nH]n3)nc12 .
Response given: 1.3 h

---

Assay: Solubility of compound at pH 6.8
Type: physicochemical
Settings: buffer
Give solubility for every item shown.
Give the value in µg/mL but do not write µg/mL after it.

Challenge: Answer with the recorded solubility of C[C@@H]1COCCN1c1nc(CN2CCOCC2)nc2sc(-c3cc[nH]n3)nc12 only.
Response given: 325

Challenge: Please report solubility for the following molecule: C[C@@H]1COCCN1c1nc(N2CCN(C)CC2)nc2sc(-c3cc[nH]n3)nc12
Response given: 191

Challenge: Please look at this molecule and report its solubility: C[C@@H]1COCCN1c1nc(C2CCOCC2)nc2sc(-c3cc[nH]n3)nc12
Response given: 9

Challenge: Annotate the molecule C[C@@H]1COCCN1c1nc(N2CCOCC2)nc2sc(-c3cc[nH]n3)nc12 with its measured solubility.
Response given: 4

Challenge: Write down solubility measured for item C[C@@H]1COCCN1c1nc(N2CCOC[C@@H]2C)nc2sc(-c3cc[nH]n3)nc12
Response given: 120

---

Target: Serine/threonine-protein kinase mTOR (Rattus norvegicus, UniProt P42346)
propertyName: pIC50
Reminder that pIC50 is minus the log10 of a molar concentration.

Challenge: Enter pIC50 (test system Serine/threonine-protein kinase mTOR (Rattus norvegicus, UniProt P42346)) for C[C@@H]1COCCN1c1nc(N2CCOC[C@@H]2C)nc2sc(-c3cc[nH]n3)nc12
Response given: 7.77

---

Experiment: Oral bioavailability in Sprague-Dawley rat at 3 mg/kg by HPLC analysis
Assay type: ADME, organism-based
Settings: in vivo
propertyName: bioavailability
A complete answer gives the number and then names the unit.

Challenge: Hello, please tell me recorded bioavailability for this one: C[C@@H]1COCCN1c1nc(N2CCOC[C@@H]2C)nc2sc(-c3cc[nH]n3)nc12
Response given: 81%

---

Field: microsomal CLint. Provide a value for each of the compounds that follow.
Experiment: Stability in rat liver microsomes assessed as intrinsic clearance
Assay type: ADME, Microsome
Conditions: read-out: CLH
Lab book: enter the figure in µL/min/mg, no units written.

Challenge: For C[C@@H]1COCCN1c1nc(N2CCOC[C@@H]2C)nc2sc(-c3cc[nH]n3)nc12 , write its microsomal CLint.
Response given: 42

Challenge: Look up and report measured microsomal CLint for this entry: C[C@@H]1COCCN1c1nc(N2CCOC[C@@H]2C)nc2[nH]c(-c3cccc4[nH]ccc34)nc12
Response given: 35

---

Assay: Volume of distribution at steady state in C57BL/6 mouse at 1 mg/kg, iv or 5 mg/kg, po by HPLC analysis
Format: ADME, organism-based
Conditions: in vivo, read-out: Vdss
propertyName: Vd
Be sure to follow the number with its unit.

Challenge: Answer with the recorded Vd of C[C@@H]1COCCN1c1nc(N2CCOC[C@@H]2C)nc2sc(-c3cc[nH]n3)nc12 only.
Response given: 2.3 L/kg

---

Molecular target: Phosphatidylinositol 4,5-bisphosphate 3-kinase catalytic subunit beta isoform (Homo sapiens, UniProt P42338)
Sequence (P42338 whole entry, canonical isoform): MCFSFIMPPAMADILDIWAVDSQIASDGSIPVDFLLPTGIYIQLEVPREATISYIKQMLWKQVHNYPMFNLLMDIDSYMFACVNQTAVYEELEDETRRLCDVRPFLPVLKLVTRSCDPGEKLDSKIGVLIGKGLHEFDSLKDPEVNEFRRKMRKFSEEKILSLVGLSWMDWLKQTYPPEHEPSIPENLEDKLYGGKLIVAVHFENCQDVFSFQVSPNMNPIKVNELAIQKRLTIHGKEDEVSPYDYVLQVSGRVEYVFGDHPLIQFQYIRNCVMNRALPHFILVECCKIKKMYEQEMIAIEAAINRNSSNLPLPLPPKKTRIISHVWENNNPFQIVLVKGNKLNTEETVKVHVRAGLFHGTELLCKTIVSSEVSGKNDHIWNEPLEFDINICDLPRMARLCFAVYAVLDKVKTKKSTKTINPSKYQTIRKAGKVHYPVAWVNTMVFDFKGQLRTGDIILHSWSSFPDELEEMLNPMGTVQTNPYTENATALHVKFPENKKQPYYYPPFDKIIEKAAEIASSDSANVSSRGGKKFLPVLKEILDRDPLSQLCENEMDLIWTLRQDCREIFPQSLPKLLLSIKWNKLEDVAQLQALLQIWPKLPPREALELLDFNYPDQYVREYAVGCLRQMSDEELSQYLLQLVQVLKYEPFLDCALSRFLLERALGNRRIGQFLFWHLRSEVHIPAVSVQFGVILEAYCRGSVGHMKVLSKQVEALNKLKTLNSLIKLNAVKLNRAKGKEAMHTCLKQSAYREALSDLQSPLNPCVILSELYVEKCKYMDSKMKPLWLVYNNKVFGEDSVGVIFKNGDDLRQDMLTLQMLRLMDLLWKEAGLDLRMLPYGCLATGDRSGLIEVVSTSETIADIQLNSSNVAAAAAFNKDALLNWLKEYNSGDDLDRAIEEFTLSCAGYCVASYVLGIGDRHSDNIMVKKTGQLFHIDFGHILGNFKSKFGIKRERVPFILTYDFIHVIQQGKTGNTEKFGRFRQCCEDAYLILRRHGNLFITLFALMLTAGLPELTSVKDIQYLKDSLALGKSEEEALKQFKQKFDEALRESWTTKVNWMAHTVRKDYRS
Test: Inhibition of PI3Kbeta (unknown origin)
pIC50: −log10 of the molar value.
propertyName: pIC50

Challenge: Query pIC50 for C[C@@H]1COCCN1c1nc(N2CCOC[C@@H]2C)nc2[nH]c(-c3cccc4[nH]ccc34)nc12
Response given: < 5.00

Challenge: Find the measured pIC50 of C[C@@H]1COCCN1c1nc(N2CCOC[C@@H]2C)nc2sc(-c3cc[nH]n3)nc12 and report it.
Response given: < 5.00

---

Target: Serine/threonine-protein kinase mTOR (Rattus norvegicus, UniProt P42346, L2427P)
Assay: Inhibition of mTOR L2427P mutant in rat primary cortical neuron assessed as reduction in PS6 phosphorylation incubated for 4 hrs by Western blot analysis (reference value: 19 nM)
propertyName: pIC50
Scale: pIC50 equals -log10([C]), with [C] in mol/L.

Challenge: Using the record for C[C@@H]1COCCN1c1nc(N2CCOC[C@@H]2C)nc2sc(-c3cc[nH]n3)nc12 , state its measured pIC50.
Response given: 7.62

---

Target: Phosphatidylinositol 4,5-bisphosphate 3-kinase catalytic subunit gamma isoform (Homo sapiens)
Sequence (P48736 whole entry, canonical isoform): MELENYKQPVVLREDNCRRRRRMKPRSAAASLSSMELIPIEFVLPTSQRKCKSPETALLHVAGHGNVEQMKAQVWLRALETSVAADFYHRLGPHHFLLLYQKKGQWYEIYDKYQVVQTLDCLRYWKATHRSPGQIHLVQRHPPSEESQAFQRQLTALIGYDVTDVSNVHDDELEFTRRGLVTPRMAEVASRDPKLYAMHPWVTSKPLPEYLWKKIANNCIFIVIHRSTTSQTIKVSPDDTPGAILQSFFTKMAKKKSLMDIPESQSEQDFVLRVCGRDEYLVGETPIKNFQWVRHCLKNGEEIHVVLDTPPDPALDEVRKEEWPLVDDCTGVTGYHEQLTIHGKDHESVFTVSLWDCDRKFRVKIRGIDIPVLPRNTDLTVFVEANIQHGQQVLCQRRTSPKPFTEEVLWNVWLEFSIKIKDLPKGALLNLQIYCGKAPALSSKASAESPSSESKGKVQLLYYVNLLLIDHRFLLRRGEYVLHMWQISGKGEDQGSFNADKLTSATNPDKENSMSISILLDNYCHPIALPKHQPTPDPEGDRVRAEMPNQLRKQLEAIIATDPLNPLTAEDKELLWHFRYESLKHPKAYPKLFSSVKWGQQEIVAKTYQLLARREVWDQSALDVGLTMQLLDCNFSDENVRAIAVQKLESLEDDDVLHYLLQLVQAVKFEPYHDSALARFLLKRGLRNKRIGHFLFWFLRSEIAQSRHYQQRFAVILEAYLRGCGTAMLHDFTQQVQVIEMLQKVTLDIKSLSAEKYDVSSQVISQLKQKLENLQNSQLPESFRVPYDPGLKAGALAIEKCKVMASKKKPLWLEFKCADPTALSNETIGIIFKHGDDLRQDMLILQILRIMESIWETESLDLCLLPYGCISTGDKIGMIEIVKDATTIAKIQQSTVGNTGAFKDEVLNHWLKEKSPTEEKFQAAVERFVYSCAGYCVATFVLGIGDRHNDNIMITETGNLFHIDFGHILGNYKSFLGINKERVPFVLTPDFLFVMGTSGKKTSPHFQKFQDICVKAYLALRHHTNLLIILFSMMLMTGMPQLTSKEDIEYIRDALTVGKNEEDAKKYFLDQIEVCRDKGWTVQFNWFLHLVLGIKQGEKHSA
Assay: Inhibition of PI3Kgamma (unknown origin)
propertyName: pIC50
// returns pIC50 (minus log10 of molar concentration), number only

Challenge: Provide only the value of recorded pIC50 for C[C@@H]1COCCN1c1nc(N2CCOC[C@@H]2C)nc2[nH]c(-c3cccc4[nH]ccc34)nc12
Response given: 5.18

Numbers sourced from ChEMBL document CHEMBL4376889.
